# tgt: AKT2 (Homo sapiens, UniProt P31751)
# Construct: expressed in transfected cells; host or cells: HEK293
# Sequence (P31751 whole entry): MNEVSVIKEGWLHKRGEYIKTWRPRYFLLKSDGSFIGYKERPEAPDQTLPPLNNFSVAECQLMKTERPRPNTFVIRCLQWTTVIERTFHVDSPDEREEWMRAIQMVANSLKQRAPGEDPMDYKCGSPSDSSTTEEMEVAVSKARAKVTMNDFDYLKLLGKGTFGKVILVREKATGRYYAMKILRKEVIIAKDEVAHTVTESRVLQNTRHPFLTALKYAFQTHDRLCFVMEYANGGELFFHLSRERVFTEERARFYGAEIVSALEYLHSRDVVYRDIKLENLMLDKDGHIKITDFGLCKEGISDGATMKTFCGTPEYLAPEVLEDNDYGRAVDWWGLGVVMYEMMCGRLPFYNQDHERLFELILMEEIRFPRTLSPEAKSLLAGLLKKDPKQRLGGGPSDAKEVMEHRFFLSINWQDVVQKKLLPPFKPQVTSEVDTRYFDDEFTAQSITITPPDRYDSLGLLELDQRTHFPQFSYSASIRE
# experiment.notes: Live cell AKT2 target engagement by NanoBRET competitive probe displacement in HEK293 cells
# Format: binding
# condition: NanoBRET live cell target engagement, HEK293 cells, 2 h at 37° C.; read-out: AKT2 IC50
pIC50: −log10 of the molar value.
outcome.measure: pIC50

[A] COc1cc(C(=O)N[C@H]2CCc3cc(-n4c(-c5cccnc5N)nc5ccc(-n6cccn6)nc54)ccc32)nn1C(F)F
[B] CN(C(=O)N[C@H]1CCc2cc(-n3c(-c4cccnc4N)nc4ccc(-n5cccn5)nc43)ccc21)c1ccccc1
[C] Nc1ncccc1-c1nc2ccc(-n3cccn3)nc2n1-c1ccc2c(c1)CC[C@@H]2NC(=O)c1ccc(Cl)cc1
## Input Given 3 compounds, produce a descending ranking by pIC50. Order the labels as requested and list them.
## Output C, A, B
(C: 6.92, A: 6.30, B: 5.59)

* * *

# tgt: AKT1 E17K (Homo sapiens, UniProt P31749, E17K)
# Construct: expressed in transfected cells; host or cells: HEK293
# Sequence (P31749 whole entry E17K): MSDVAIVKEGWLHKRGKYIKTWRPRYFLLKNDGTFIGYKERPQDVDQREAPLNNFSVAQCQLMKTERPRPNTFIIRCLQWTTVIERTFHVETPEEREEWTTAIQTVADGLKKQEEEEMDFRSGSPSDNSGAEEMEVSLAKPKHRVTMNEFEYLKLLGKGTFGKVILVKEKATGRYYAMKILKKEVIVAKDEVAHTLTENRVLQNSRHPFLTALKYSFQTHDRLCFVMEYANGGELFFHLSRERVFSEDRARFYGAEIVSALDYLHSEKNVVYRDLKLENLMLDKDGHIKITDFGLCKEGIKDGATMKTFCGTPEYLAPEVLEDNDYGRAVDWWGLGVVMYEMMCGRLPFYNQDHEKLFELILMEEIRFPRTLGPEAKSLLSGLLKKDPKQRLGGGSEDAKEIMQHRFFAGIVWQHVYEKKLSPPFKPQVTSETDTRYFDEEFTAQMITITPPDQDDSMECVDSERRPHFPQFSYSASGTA
# experiment.notes: Live cell AKT1 E17K target engagement by NanoBRET competitive probe displacement in HEK293 cells
# Type: binding
# condition: NanoBRET live cell target engagement, HEK293 cells, 2 h at 37° C.
pIC50: −log10 of the molar value.
outcome.measure: pIC50

Nc1ncccc1-c1nc2ccc(-n3cccn3)nc2n1-c1ccc2c(c1)CC[C@@H]2NC(=O)c1ccc(O)c(O)c1 | 6.95

[A] CCOC(=O)N1CCC(N[C@H]2CCc3cc(-n4c(-c5cccnc5N)nc5ccc(-n6cccn6)nc54)ccc32)CC1
[B] Nc1ncccc1-c1nc2ccc(-n3nccn3)nc2n1-c1ccc2c(c1)CC[C@@H]2NC(=O)c1cccnc1
## Input Select one. Lower pIC50: A or B Output the label that corresponds to your choice.
## Output A

[P] COc1cc(C(=O)N[C@H]2CCc3cc(-n4c(-c5cccnc5N)nc5ccc(-n6cccn6)nc54)ccc32)c(C)cn1
[Q] CCc1coc(C(=O)N[C@H]2CCc3cc(-n4c(-c5cccnc5N)nc5ccc(-n6cccn6)nc54)ccc32)n1
## Input Short answer wanted: higher pIC50, P or Q ? Respond with the label that goes with your answer.
## Output P

[A] Nc1ncccc1-c1nc2ccc(-n3nccn3)nc2n1-c1ccc2c(c1)CC[C@@H]2NC(=O)c1ccnc2occc12
[B] Nc1ncccc1-c1nc2ccc(-n3cccn3)nc2n1-c1ccc2c(c1)CC[C@@H]2NC(=O)c1cccnc1
[C] Cc1cc(C(=O)N[C@H]2CCc3cc(-n4c(-c5cccnc5N)nc5ccc(-n6cccn6)nc54)ccc32)cnc1C(F)F
[D] CC(C)(C)c1cn([C@H]2CCc3cc(-n4c(-c5cccnc5N)nc5ccc(-n6cccn6)nc54)ccc32)nn1
## Input // sort entries: pIC50, high to low In plain terms: list the labels in the order you were asked to.
## Output B, C, A, D

[1] Cn1cc(C(=O)N[C@H]2CCc3cc(-n4c(-c5cccnc5N)nc5ccc(-n6cccn6)nc54)ccc32)ccc1=O
[2] Nc1ncccc1-c1nc2ccc(-n3cccn3)nc2n1-c1ccc2c(c1)CC[C@@H]2NC(=O)c1ccc(C(F)F)cc1
[3] Nc1ncccc1-c1nc2ccc(-n3cccn3)nc2n1-c1ccc2c(c1)CC[C@@H]2NC(=O)c1ccc(-n2cccn2)nc1
## Input // ascending sort on recorded pIC50 List each label, following the requested order.
## Output 1, 2, 3

[I] Cc1ccncc1C(=O)N[C@H]1CCc2cc(-n3c(-c4cccnc4N)nc4ccc(-n5cccn5)nc43)ccc21
[II] Nc1ncccc1-c1nc2ccc(-n3cccn3)nc2n1-c1ccc2c(c1)CC[C@@H]2NC(=O)c1ccnc(OC(F)(F)F)c1
[III] Nc1ncccc1-c1nc2ccc(-n3cccn3)nc2n1-c1ccc2c(c1)CC[C@@H]2NC(=O)c1ccnc(C(F)F)c1
## Input Please put the entries in order of rising pIC50. The labels, placed in the requested order, form the answer.
## Output I, II, III

[I] Cn1ccc2c(C(=O)N[C@H]3CCc4cc(-n5c(-c6cccnc6N)nc6ccc(-n7cccn7)nc65)ccc43)[nH]cc2c1=O
[II] Nc1ncccc1-c1nc2ccc(-n3nccn3)nc2n1-c1ccc2c(c1)CC[C@@H]2NC(=O)c1ccc(C(F)F)nc1
[III] Nc1ncccc1-c1nc2ccc(-n3nccn3)nc2n1-c1ccc2c(c1)CC(F)[C@@H]2NC(=O)c1ccc(C(F)F)nc1 (some centres unmarked) [Compound 349]
## Input # rank_down: sort by pIC50, max first Hello, could you send the labels back in the order asked? Thank you.
## Output III, I, II
(III: 7.30, I: 6.75, II: 6.53)

* * *

# tgt: AKT1 WT (Homo sapiens, UniProt P31749)
# Construct: expressed in transfected cells; host or cells: HEK293
# Sequence (P31749 whole entry): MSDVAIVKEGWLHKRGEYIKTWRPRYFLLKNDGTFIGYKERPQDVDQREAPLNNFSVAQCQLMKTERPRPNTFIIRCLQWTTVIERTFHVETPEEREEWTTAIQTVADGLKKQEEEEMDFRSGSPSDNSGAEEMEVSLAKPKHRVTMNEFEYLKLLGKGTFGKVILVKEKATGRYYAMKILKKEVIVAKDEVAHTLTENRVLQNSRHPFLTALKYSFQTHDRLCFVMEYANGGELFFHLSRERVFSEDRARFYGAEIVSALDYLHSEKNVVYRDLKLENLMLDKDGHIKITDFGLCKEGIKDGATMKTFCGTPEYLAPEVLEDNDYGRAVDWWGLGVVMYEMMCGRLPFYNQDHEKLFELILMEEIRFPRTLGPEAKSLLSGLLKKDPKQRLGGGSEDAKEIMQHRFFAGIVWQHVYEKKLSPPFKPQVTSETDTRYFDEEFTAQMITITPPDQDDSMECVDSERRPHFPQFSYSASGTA
# experiment.notes: Live cell AKT1 WT target engagement by NanoBRET competitive probe displacement in HEK293 cells
# Format: binding
# condition: NanoBRET competitive probe displacement, live HEK293 cells, 2 h at 37° C.; read-out: AKT1 WT IC50
pIC50: −log10 of the molar value.
outcome.measure: pIC50

[1] Nc1ncccc1-c1nc2ccc(-n3cccn3)nc2n1-c1ccc2c(c1)CC[C@@H]2NC1CCc2ccncc21 (single isomer, unassigned) [Example 495]
[2] Nc1ncccc1-c1nc2ccc(-n3cccn3)nc2n1-c1ccc2c(c1)CC[C@@H]2NC1CCCc2ccncc21 (stereo partly drawn) [Compound 501]
[3] Nc1ncccc1-c1nc2ccc(-n3nccn3)nc2n1-c1ccc2c(c1)CC[C@@H]2NC(=O)c1ccc(C2CC2)nc1 [Compound 491]
[4] Nc1ncccc1-c1nc2ccc(C#CC3CCCC3)nc2n1-c1ccc2c(c1)CC[C@@H]2NC(=O)c1ccc(C(F)F)nc1 [Compound 460]
[5] COCCN(C)[C@H]1CCc2cc(-n3c(-c4cccnc4N)nc4ccc(-n5cccn5)nc43)ccc21 [Compound 457]
## Input Arrange the above in rising order of pIC50. List the labels, following the order given in the request.
## Output 5, 4, 2, 1, 3

[I] Nc1ncccc1-c1nc2ccc(-n3ccc(C4CC4)n3)nc2n1-c1ccc2c(c1)CC(F)[C@@H]2NC1CCN(C(=O)C2CC2)CC1 (stereo partly drawn) [Compound 480]
[II] CN(C)CC#Cc1ccc2nc(-c3cccnc3N)n(-c3ccc4c(c3)CC[C@@H]4NC(=O)c3ccc(C(F)F)nc3)c2n1 [Compound 407]
## Input When I and II are compared, which has the higher number for pIC50? # answer = label of selected item
## Output I
(I: 7.41, II: 6.38)

[A] Nc1ncccc1-c1nc2ccc(-n3cccn3)nc2n1-c1ccc2c(c1)CC[C@@H]2NC1CCN(C(=O)C2CC2)CC1F (stereo partly drawn) [Compound 446]
[B] COc1ccn(-c2ccc3nc(-c4cccnc4N)n(-c4ccc5c(c4)CC[C@@H]5NC4CCN(C(=O)C5CC5)CC4F)c3n2)n1 (stereo partly drawn) [Compound 513]
## Input Which of these two has the smaller recorded pIC50: A or B ? Pick one and reply with its label.
## Output A

[P] Nc1ncccc1-c1nc2ccc(-n3cccn3)nc2n1-c1ccc2c(c1)CC[C@@H]2NC1CCc2cnccc2C1 (single isomer, unassigned) [Compound 463]
[Q] CN1CCN(c2ccn(-c3ccc4nc(-c5cccnc5N)n(-c5ccc6c(c5)CC[C@@H]6NC5CCN(c6ccn(C)n6)CC5)c4n3)n2)CC1 [Compound 598]
[R] Cn1ccc(Oc2ccc3nc(-c4cccnc4N)n(-c4ccc5c(c4)CC[C@@H]5NC(=O)c4cnc(C(F)F)s4)c3n2)n1 [Compound 558]
## Input // ranking: key=pIC50, reverse=True I would appreciate it if you listed the labels in the requested order.
## Output Q, P, R
(Q: 8.42, P: 7.57, R: 7.15)

* * *

# tgt: AKT1 WT (Homo sapiens, UniProt P31749)
# Construct: expressed in transfected cells; host or cells: HEK293
# experiment.notes: Live cell AKT1 WT target engagement by NanoBRET competitive probe displacement in HEK293 cells
# Format: binding
# condition: NanoBRET live cell target engagement, HEK293 cells, 2 h at 37° C.; read-out: AKT1 WT IC50
pIC50: −log10 of the molar value.
outcome.measure: pIC50

Nc1ncccc1-c1nc2ccc(-n3nccn3)nc2n1-c1ccc2c(c1)CC[C@@H]2NC(=O)c1cc(F)c2[nH]ncc2c1 | 7.89
Cc1ncccc1-c1cn([C@H]2CCc3cc(-n4c(-c5cccnc5N)nc5ccc(-n6cccn6)nc54)ccc32)nn1 | 7.62
Nc1ncccc1-c1nc2ccc(-n3cccn3)nc2n1-c1ccc2c(c1)CC[C@@H]2NC(=O)c1ccc(O)cc1 | 8.55
Cc1cc(C(=O)N[C@H]2CCc3cc(-n4c(-c5cccnc5N)nc5ccc(-n6cccn6)nc54)ccc32)n[nH]1 | 7.71
Nc1ncccc1-c1nc2ccc(-n3nccn3)nc2n1-c1ccc2c(c1)CC[C@@H]2NC(=O)c1ccc(C(F)F)nc1 | 7.71
Cc1ncccc1S(=O)(=O)N[C@H]1CCc2cc(-n3c(-c4cccnc4N)nc4ccc(-n5cccn5)nc43)ccc21 | 7.05
Cc1cc(C(=O)N[C@H]2CCc3cc(-n4c(-c5cccnc5N)nc5ccc(-n6cccn6)nc54)ccc32)ccn1 | 8.22
Cc1ncccc1C(=O)N[C@H]1CCc2cc(-n3c(-c4cccnc4N)nc4ccc(N5CCOCC5)nc43)ccc21 | 7.08
Nc1ncccc1-c1nc2ccc(-c3ccn(C(F)F)n3)nc2n1-c1ccc2c(c1)CC[C@@H]2n1ccnn1 | 7.62
Cc1cccnc1C(=O)N[C@H]1CCc2cc(-n3c(-c4cccnc4N)nc4ccc(-n5cccn5)nc43)ccc21 | 6.94

[A] Cn1nc(C(=O)N[C@H]2CCc3cc(-n4c(-c5cccnc5N)nc5ccc(-n6cccn6)nc54)ccc32)cc1C#N
[B] COc1nccc(C(=O)N[C@H]2CCc3cc(-n4c(-c5cccnc5N)nc5ccc(-n6cccn6)nc54)ccc32)c1C
## Input Out of A and B , name the one with the higher pIC50. Kindly state the label of the option you pick.
## Output B
(B: 8.29, A: 7.24)

[P] CCc1ncccc1C(=O)N[C@H]1CCc2cc(-n3c(-c4cccnc4N)nc4ccc(-n5cccn5)nc43)ccc21
[Q] Nc1ncccc1-c1nc2ccc(-n3cccn3)nc2n1-c1ccc2c(c1)CC[C@@H]2NC(=O)c1cnc2c(c1)CCC2
## Input Returns: the argument ( P or Q ) having the larger pIC50. Choose, then provide that item's label.
## Output Q
(Q: 8.13, P: 7.33)
